# target_system: GABARAP, O95166
# Sequence (O95166 whole entry, the tested form may be a part): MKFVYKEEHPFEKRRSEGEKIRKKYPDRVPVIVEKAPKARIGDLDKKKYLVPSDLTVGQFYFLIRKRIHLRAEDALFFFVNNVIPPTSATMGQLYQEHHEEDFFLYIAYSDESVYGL
# run_description: median log2 fold change of GCK-ALFA target abundance (FLAG IP / Myc IP barcode read proportion) (log2 ratio); each designed protein is fused to an ALFA-tag nanobody in HEK293 cells to bring the named protein to FLAG-tagged glucokinase (GCK); Myc marks an untargeted standard; higher = target protein stabilised (more abundant)
# particulars: target protein: 3xFLAG-MCP-GCK-ALFA reporter; HEK293 landing pad (RPLP)
In all, about 4,500 sequences were measured (“median log2 fold change of GCK-ALFA target abundance (FLAG IP / Myc IP barcode read proportion)”: median about 0.078, lowest 2% from about -0.6 on). Many of the other results were omitted from the sample, so the lowest values are more common in it than they were.
measurement_kind: median log2 fold change
No unit in the answer, only the number.

Check out these entries, answers already filled in.
Item: GBRAP_184_5238 (protein) KVLEVTVEAADAEELRAKLEAVFAEAEAAGARVRLDVLVEELTPEKVDVLTEEIARMAAAGLLDLVEVTSSTPIAEEHIDRLVAAADAAGVRLVIAEPDE | median log2 fold change: 0.168

Quick note, median log2 fold change for GBRAP_52_5975 (protein) MREEMRRLAEEAVALMLAGDREGARALLEEIAETKTEEEITLFMEELAELAKTATPEERDAIVEVALLAEDIWLEAGFDEALADSNVARVAAAAYAAEQA landed at 0.107

Form field median log2 fold change, entry GBRAP_52_6040 (protein) MRERMRRLAREIVELVRAGRLEEARERIRELVETLSLEELELLGEELAELAREAEPEDLDAVMEVALMLADELEKAGYPEVFADDLEARVARAAVENLER : -0.365

// sample GBRAP_52_6073 (protein) MEEKIEKLAEEITEAIKAGDDEKALELLEKAVKELSEEEIKKLLVLTAKKVAKLNEEEHERFVDILDEFEDILIENGISEEDALLIVGDALAALAKEVAK , its median log2 fold change was -0.605

Value of measured median log2 fold change for the entry GBRAP_26_5497 (protein) FLEEILEELRREIKEILKDESPELQAAVIATAEDLLLEADEEIEENAEDEEKIKEAIEKAVEEMRKELERFGLSEEKIEKIVEALRRALEKVAERIKEEA : 0.312

Lookup result for GBRAP_128_3366 (protein) LDEALLAEIRALVERMITSSVEETAALTREIVARIGTLSLAEQEAAVEIILAALPKLTKEKLEVVADTIRAAAPELDPETQRLLAEVEVEALNLAEELEE ; measured median log2 fold change: 0.309

So for GBRAP_39_5685 (protein) EEEEEDENVVSYLEGLAAARLYETGKSLEELFEEAKKILKALAKEEPELKELIEELIELAEKKGDEAKLALIGIAVLVEEGTPLEEIKENIEKVINYFKK , the logged median log2 fold change turned out to be -0.604

Record GBRAP_117_2594 (protein) SATLEEVRKRVEELVERIRKALEEMKTLSEEERKRLREELLEEATKEVKEMLKLTDAETVEEFFAEALADLSPEERVEAYIIFEEALADAEDELKEEEEA , field median log2 fold change: 0.152

Entry under test: GBRAP_125_3109 (protein) SEDELLAALRALARALGFSEEEAEEAAELARRFSLRQTLYAIFLAEGEEELADLVEQLTEEQARAALAALAAWLAAHPDATKEEVLAQARAILEAELARA . Its median log2 fold change was -0.77

Note to self: median log2 fold change recorded for GBRAP_80_6786 (protein) MEEEIEKLIEEIEKKNPEVAKIIKEIVELLKEIGVPLEIIKEIVEVFLDALSLPKETQLKIAKEVLEEAKELSEYKDEFSPEDIGRMVLAEALTLVELAK was -0.00858

Others:
Notebook: GBRAP_39_5686 (protein) EEEEENEDVVSYLEGLAAKYLYETGKSLEEAFEEAKKILLKLAEEHPELKELIEKLIELAEKKGEEAKLALIGIAVLVKQGTPLEEIKENIEKVIAYFES , median log2 fold change read as 0.293

For this binder ( GBRAP_184_5056 (protein) MIHEKVIKAETLEELEEKLEELEEELKDFKGELIVHVEIPEFTEEMIELIIERLKRILENGYVSSVTLGLDGKMSEEVVDLAIKLADEAGIKLVIALEEE ), measured median log2 fold change is 0.234

For record GBRAP_52_6365 (protein) MLEEAVELLRKAVEATLAGKEEEAEEILKEIVENFSDETIVKAVERLAEEVATKTLEEAEAFLDTAIRLADIMLEAGRDEAKADEIEAIAAKAYSAVLAK the listed median log2 fold change is -0.000301

So for GBRAP_78_6611 (protein) ETKEKILKLLEEAEELAREVRKLAPEVAEQAAELEVLLGTAIYMVDTGSESKEEILETLEEAEKAAKELKKLVEGLAEEVQKLVKEALEKIKEAIKLLKE , the logged median log2 fold change turned out to be 0.172

response.value for GBRAP_35_5514 (protein) STDDTIAEMLESYIEDLTLAVPELDPETLHTLTLGAAEMARELIEDNKNNKEIVKRIKESLERLLEALEARGLDDPLLREAAERVREVIEYAEEVLKEIE (field: median log2 fold change) = -0.908

GBRAP_160_4272 (protein) SPEREELIEDIEEDREEILELVDKISPEEVRNFAVTSLGSHLLEAIDLGLVTDEQEDELMEIVDELEKELKEAENASKEEIKKIITEHYDKAIEILKKAK yielded median log2 fold change of 0.239

Form field median log2 fold change, entry GBRAP_160_4375 (protein) SEELKELIKEIEELKKEFEELAKDLSPEEVKILAKGVLSEIAALVFENEAVSEETKDKIMEIIDKALEELDKLKDASPEEIVAVTTEAVNEIIELIKKEI : 0.194
